biological target: AMP-activated protein kinase, AMPK (Homo sapiens) (UniProt P54646+O43741+P54619+Q9UGJ0+Q9Y478+Q13131+Q9UGI9); assay: AMP-dependent Kinase enzyme assay. An in vitro enzyme assay that detects ADP turnover that is directly proportional to AMPK activity. This uses naive AMPK that is activated during the assay with MK-8722; type: functional; parameters: scale not given: direction of the effect not stated beside the values; conditions: 30 µM
# Percent Effect values compiled below
Provide only the numeric value, understood in %.

Previously resolved entries follow.
COMPOUND	READING_UNIT	Percent Effect
CSc1ncccc1C(=O)N1C[C@H]2CC[C@@H]1CN(c1cnccn1)C2	%	4.77
COc1ccc2c(c1)C1(CCN(Cc3ccoc3)CC1)N(C)CC2	%	2.57

Now for the compound whose Percent Effect we want.
State the recorded Percent Effect for this entry: O=C(CN1CCC(c2cccc(F)c2)C1)NCc1ccco1 (stereo not drawn)
4.1

---

molecular target: AMP-activated protein kinase, AMPK (Homo sapiens) (UniProt P54646+O43741+P54619+Q9UGJ0+Q9Y478+Q13131+Q9UGI9); assay: AMP-dependent Kinase enzyme assay. An in vitro enzyme assay that detects ADP turnover that is directly proportional to AMPK activity. This uses naive AMPK that is activated during the assay with MK-8722; format: functional; set-up: scale not given: direction of the effect not stated beside the values; settings: 30 µM
VALUE_TYPE: Percent Effect (%)
Provide only the numeric value, understood in %.

Previously resolved entries follow.
COMPOUND	Percent Effect (%)
CC(C)Nc1nc(N2CCOCC2)nc2c1CN(Cc1ccoc1)CC2	12.8
COC(=O)c1cccc(C(=O)N2CCCCC2CCn2ccnc2C)c1 (stereo not drawn)	0.551

State the recorded Percent Effect for this entry: CCCN(CC(=O)NC)C(=O)c1ccc(-c2ccsc2)nc1C
-2.8

State the recorded Percent Effect for this entry: Cc1nc(-c2ccco2)ccc1C(=O)N1CCCC1Cn1cccn1 (stereo not drawn)
3.11

State the recorded Percent Effect for this entry: O=C(c1ccnnc1)N1C[C@H]2CCC[C@@]2(COCC2CCOCC2)C1
2.91

State the recorded Percent Effect for this entry: CCOCC1CN(C(=O)CS(C)(=O)=O)Cc2cnn(C)c21 (stereo not drawn)
-16.6

State the recorded Percent Effect for this entry: Cc1nn(C)c(N(C)C)c1CNCc1cccnc1-n1cncn1
1.44

---

Target: Tyrosyl-tRNA synthetase, putative (Trypanosoma cruzi (strain CL Brener)) (UniProt Q4DSP6)
Sequence (whole entry): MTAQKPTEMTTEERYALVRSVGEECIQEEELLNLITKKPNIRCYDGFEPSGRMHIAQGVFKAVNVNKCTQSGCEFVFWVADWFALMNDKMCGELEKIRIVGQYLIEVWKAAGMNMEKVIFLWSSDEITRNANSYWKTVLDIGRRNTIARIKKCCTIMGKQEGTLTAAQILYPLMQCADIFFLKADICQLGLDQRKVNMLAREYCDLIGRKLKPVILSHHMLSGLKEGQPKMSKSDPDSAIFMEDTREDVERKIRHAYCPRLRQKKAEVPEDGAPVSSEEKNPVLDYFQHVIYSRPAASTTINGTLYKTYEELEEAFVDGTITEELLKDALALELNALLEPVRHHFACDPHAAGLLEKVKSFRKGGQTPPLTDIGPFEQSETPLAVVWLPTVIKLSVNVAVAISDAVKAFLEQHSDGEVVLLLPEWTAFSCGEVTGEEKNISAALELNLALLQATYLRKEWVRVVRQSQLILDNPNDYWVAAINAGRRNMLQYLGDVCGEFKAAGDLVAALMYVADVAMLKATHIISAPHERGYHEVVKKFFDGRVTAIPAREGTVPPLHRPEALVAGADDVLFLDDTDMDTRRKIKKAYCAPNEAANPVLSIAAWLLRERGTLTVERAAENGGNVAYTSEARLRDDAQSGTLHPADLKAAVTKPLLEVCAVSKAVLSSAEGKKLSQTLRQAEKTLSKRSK
Assay: Trypanosoma cruzi tyrosyl tRNA synthetase (TcYRS) SOP
Format: functional
Set-up: scale not given: direction of the effect not stated beside the values
Settings: 30 µM
# Percent Effect values compiled below
Respond with the figure and its unit, in that order.

Previously resolved entries follow.
COMPOUND	OBSERVED_MEASUREMENT
NC(=O)CN1CCC(NC(=O)c2ccn(-c3cccc(F)c3)n2)CC1	-2.56%
Cn1cc(CN2CCc3nc(-c4ccccn4)nc(O)c3C2)cn1	29.5%
N#CC1(C(=O)N2CCN(Cc3ccon3)CC2)CCC1	1.27%

State the recorded Percent Effect for this entry: CNC(=O)Nc1cc(-c2ccccc2C)nn1CCO
0%

State the recorded Percent Effect for this entry: CC(CNCc1ccc(Cl)c(Cl)c1)Oc1ccccn1 (stereo not drawn)
10.3%

State the recorded Percent Effect for this entry: COCCN1CCC2(CCCN(C(=O)c3cnoc3C)C2)C1=O (stereo not drawn)
3.7%

State the recorded Percent Effect for this entry: CC(C)c1nn(C)c(N2CCOCC2)c1CNC(C)c1cccs1 (stereo not drawn)
18.5%

State the recorded Percent Effect for this entry: O=C(Cc1ccc(O)c(Cl)c1)N1CCCCC1CCn1cccn1 (stereo not drawn)
19.5%

State the recorded Percent Effect for this entry: CCS(=O)(=O)N1Cc2nccn2CC(Cn2nc(C)nc2C)C1 (stereo not drawn)
18.5%

State the recorded Percent Effect for this entry: Cc1nn(C)c(N(C)C)c1CNCc1cccnc1-n1cncn1
12.7%

State the recorded Percent Effect for this entry: COC(=O)c1ccccc1NC(=O)c1nc2ccccc2n(C)c1=O
16.7%

State the recorded Percent Effect for this entry: Cc1cccc(-c2[nH]ncc2CNCC2CCN(CC(C)O)CC2)c1 (stereo not drawn)
18.5%

State the recorded Percent Effect for this entry: O=C(NCc1cnc2n1CCN(CC1CC1)CC2)C1CCC1
16.1%

State the recorded Percent Effect for this entry: CCN(CC(=O)NC(C)C)S(=O)(=O)N1CCC(C)C1 (stereo not drawn)
6.17%

---

species: Homo sapiens; assay: To identify inhibition of the IFN signalling (Jak-Stat) pathway via expression of an eGFP reporter gene under the control of an IFN-stimulated response element (ISRE) containing MxA promoter.; format: functional; set-up: scale not given: direction of the effect not stated beside the values; settings: 30 µM
VALUE_TYPE: Percent Effect (%)
Provide only the numeric value, understood in %.

COMPOUND	READING_UNIT	OBSERVED_MEASUREMENT
COc1ccc(C(=O)N2CCCC(C)C2)cc1F (stereo unspecified)	%	18.6
Cc1nc(CCN(C)C(=O)C2COc3ccccc3C2)no1 (stereo unspecified)	%	-0.00401
CCN(CC)c1ccc(C(=O)NCc2cccnc2-n2cncn2)cn1	%	19.1

State the recorded Percent Effect for this entry: Cc1nc(-c2ccco2)ccc1C(=O)N1CCCC1Cn1cccn1 (stereo unspecified)
7.74

State the recorded Percent Effect for this entry: CN(C)C1CCN(C(=O)NCc2ccc(Cn3cncn3)cc2)CC1
6.43

State the recorded Percent Effect for this entry: CC(C)CCN1CC2(CCCN(C(=O)c3cscn3)C2)CCC1=O (stereo unspecified)
-4.77

---

# Percent Effect values compiled below
target: Ubiquitin-activating enzyme e1, putative (Leishmania donovani (strain BPK282A1)) (UniProt E9BSI1); assay: Leishmania donovani Ubiquitin Activating Enzyme (LdE1); type: functional; design: scale not given: direction of the effect not stated beside the values; conditions: 30 µM
Sequence (E9BSI1 as listed by the source): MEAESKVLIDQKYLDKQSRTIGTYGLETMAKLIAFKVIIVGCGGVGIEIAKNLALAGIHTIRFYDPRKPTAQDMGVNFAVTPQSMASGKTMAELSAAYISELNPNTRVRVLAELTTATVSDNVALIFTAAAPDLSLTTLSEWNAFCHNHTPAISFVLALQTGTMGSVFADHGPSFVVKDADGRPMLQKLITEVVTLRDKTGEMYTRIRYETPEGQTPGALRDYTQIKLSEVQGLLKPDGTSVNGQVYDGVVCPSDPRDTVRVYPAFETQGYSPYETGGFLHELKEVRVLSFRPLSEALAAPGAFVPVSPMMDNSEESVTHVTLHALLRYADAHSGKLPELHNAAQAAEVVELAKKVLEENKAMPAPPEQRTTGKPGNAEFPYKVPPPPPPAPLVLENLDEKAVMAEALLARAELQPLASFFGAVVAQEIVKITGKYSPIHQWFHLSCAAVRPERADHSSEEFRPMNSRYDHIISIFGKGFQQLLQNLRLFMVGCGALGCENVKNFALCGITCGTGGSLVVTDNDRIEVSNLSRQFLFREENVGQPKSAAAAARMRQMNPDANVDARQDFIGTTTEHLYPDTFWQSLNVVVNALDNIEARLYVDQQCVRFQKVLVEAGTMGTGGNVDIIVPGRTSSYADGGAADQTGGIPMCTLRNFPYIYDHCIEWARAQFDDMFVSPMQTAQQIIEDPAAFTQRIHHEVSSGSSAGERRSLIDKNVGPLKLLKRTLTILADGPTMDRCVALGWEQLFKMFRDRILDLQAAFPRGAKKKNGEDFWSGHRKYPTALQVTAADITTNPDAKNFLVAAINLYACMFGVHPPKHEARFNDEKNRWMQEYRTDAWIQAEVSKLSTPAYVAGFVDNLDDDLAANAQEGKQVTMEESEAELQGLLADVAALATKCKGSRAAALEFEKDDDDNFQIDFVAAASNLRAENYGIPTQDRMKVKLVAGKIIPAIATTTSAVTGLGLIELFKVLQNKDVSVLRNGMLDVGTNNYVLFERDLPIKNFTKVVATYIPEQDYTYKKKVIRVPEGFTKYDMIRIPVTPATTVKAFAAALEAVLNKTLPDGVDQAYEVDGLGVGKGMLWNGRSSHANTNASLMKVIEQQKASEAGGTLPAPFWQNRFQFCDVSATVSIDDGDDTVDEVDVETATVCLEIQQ
Potency and affinity values are given separately.
Provide only the numeric value, understood in %.

Previously resolved entries follow.
COMPOUND	READING_UNIT	OBSERVED_MEASUREMENT
CCCC1(CO)CCCN(c2ncccc2F)C1 (centres undefined)	%	5.41
O=C(c1ccccn1)N1C[C@@H]2CC[C@H](C1)N(C(=O)CCc1cccs1)C2	%	5.2
Cn1ccnc1CN1CCC2(CC1)CN(CC1CC1)C(=O)CO2	%	0

Now for the compound whose Percent Effect we want.
State the recorded Percent Effect for this entry: COc1cc(CN(C(=O)Nc2cccnc2OC)C2CC2)ccc1O
2.6

---

test system: Trypanosoma cruzi; test: Trypanosoma cruzi phosphomannomutase and mannose-1-phosphate guanylyltransferase assay; format: functional; parameters: scale not given: direction of the effect not stated beside the values; conditions: 10 µM
# Percent Effect values compiled below
Provide only the numeric value, understood in %.

Previously resolved entries follow.
COMPOUND	TARGET_OR_TEST_SYSTEM	READING_UNIT	Percent Effect
c1csc(CN2CCn3c(Cn4cncn4)cnc3C2)n1	Trypanosoma cruzi	%	-0.984
COc1ccc(OCc2nc(C(=O)N3CC[C@H](O)[C@@H](O)C3)co2)cc1	Trypanosoma cruzi	%	-3.09
CCOCC(O)CN1CCN(C(=O)CC(C)C)CC1 (stereo not given)	Trypanosoma cruzi	%	-4.62
COc1c(CNCC(c2cccc(F)c2)N(C)C)c(C(C)C)nn1C (stereo not given)	Trypanosoma cruzi	%	4.6

Field: Percent Effect (Trypanosoma cruzi). Entry: Cc1cnc(C(=O)N2CCCN(Cc3csc(C)n3)CC2)cn1
6.75

Field: Percent Effect (Trypanosoma cruzi). Entry: N#Cc1ccc(OCCCN2CCc3cncnc3C2)cc1
-3.68

Field: Percent Effect (Trypanosoma cruzi). Entry: CC(C(=O)NCc1cccc(N2CC=CC2)c1)n1cccn1 (stereo not given)
-1.5

Field: Percent Effect (Trypanosoma cruzi). Entry: COCC(O)CN(C)C(=O)NC1CCN(Cc2ccccn2)CC1 (stereo not given)
4.31
